Cited source for all entries: the supplement of paper PMC11908140

B1: library; numbered along this chain (parent)
chain: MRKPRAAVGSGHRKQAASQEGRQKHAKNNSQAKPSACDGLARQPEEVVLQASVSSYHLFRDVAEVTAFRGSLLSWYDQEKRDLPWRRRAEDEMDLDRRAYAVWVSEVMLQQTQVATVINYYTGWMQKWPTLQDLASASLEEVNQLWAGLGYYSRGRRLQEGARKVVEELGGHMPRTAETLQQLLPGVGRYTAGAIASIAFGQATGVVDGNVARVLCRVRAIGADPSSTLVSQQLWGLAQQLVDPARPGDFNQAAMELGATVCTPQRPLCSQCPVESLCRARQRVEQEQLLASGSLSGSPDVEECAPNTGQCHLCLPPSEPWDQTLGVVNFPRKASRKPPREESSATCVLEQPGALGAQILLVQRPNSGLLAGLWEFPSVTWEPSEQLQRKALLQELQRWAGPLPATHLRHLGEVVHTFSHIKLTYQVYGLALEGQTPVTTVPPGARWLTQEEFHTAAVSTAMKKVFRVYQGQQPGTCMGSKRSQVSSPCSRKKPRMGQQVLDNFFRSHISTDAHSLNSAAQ

Variants of: B1
Test: 8OG:A repair function score (normalized; synonymous = 0, nonsense = -1) (normalized log-likelihood score); higher = more repair activity (WT-like);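 further: cells sorted at 72 h after reporter transfection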
Settings: with 8OG:A DNA repair reporter (GFP) in HEK-293 MUTYH KO cells
# if value of 8OG:A repair function score reaches -0.2, tag met; if it stays below, tag not met

Solved entries:
{"VARIANT_LABEL": "G293M", "CLASS_NAME": "met"}
{"VARIANT_LABEL": "R281Q", "CLASS_NAME": "met"}
{"VARIANT_LABEL": "S71F", "CLASS_NAME": "met"}

## Input Kindly determine if 8OG:A repair function score recorded for `L448Y` is above or exactly -0.2.
## Output not met

## Input Say whether `P404H` shows 8OG:A repair function score of -0.2 or more.
## Output met
